target: Heat shock factor protein 1 (Mus musculus, UniProt P38532); experiment: HSF1 potentiators in luciferase reporter cells, confirmation, cell-based, NIH3T3, luminescence, dose retest (AID 435004); type: functional;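 note: stress induced by proteasome inhibitor MG132 added 30 min after compound; luciferase reporter driven by HSF1 response element in NIH3T3 cells; actives raise luminescence as potentiators of the MG132 stress response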
Sequence (P38532 whole entry): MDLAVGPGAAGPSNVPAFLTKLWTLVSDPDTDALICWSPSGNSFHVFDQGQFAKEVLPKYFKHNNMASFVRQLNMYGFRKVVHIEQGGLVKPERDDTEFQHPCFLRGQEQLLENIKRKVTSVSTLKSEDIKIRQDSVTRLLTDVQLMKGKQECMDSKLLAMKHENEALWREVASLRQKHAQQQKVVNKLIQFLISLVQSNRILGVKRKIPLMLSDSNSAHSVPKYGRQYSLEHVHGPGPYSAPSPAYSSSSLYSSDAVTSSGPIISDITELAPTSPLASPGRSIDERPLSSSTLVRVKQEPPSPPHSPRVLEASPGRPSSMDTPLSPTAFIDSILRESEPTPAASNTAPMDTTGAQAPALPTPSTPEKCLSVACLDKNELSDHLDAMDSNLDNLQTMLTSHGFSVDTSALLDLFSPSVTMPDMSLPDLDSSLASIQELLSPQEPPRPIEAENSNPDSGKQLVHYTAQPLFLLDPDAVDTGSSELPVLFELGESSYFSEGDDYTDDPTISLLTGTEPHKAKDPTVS
Activity calls are given as the source filed them.
Write down one outcome, taken from 1 (yes) (active), 0 (no) (inactive)

                                   compound    group
0  CCc1ccccc1NS(=O)(=O)c1cc2c3c(c1)CCN3C(=O)CC2   0 (no)
1  CC(=O)/C(=N/Nc1ccc(Br)cc1)N1CCCc2ccccc21  1 (yes)
2  O=S(=O)(Nc1cc2nc3ccccc3nc2n1Cc1ccccc1)c1ccc(Cl)cc1   0 (no)
3  N#Cc1cc(Cl)c(NCC2CCCO2)cc1C#N (stereo unspecified)   0 (no)
4  CCN(CC)S(=O)(=O)c1cccc(C(=O)OCC(=O)N2CC(=O)Nc3ccccc32)c1   0 (no)
5  O=C(Nc1ccc(S(=O)(=O)N2CCCCC2)cc1)C1CCN(C(=O)c2ccco2)CC1   0 (no)

Here is the next item to consider.
In: Kindly provide the recorded test outcome for the following compound: CCN1CC(CN(C)Cc2nc(COc3ccccc3)no2)CC1=O (stereo unspecified)
Out: 0 (no)

###

IC50 for assorted molecules
target: Carboxy-terminal domain RNA polymerase II polypeptide A small phosphatase 1 (Homo sapiens); assay: inhibitors of CTDSP1, concentration-response testing, biochemical assay, absorbance-based, actives from ultra-high-throughput screening (AID 540297); assay type: functional
Sequence (Q9GZU7 whole entry, the tested form may be a part): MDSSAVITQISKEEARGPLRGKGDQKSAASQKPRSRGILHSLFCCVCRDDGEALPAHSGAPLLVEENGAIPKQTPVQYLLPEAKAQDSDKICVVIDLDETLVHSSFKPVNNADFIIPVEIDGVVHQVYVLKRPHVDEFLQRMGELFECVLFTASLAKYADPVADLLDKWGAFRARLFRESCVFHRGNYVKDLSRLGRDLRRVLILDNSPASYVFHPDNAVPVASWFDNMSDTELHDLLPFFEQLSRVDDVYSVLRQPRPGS
Activity calls are given as the source filed them.

Sample records with IC50:
                                   molecule          data_value
0  O=C(NNC(=O)c1ccc2ccccc2c1)c1ccc(Cl)c(Cl)c1  > 80 µM (inactive)
1  O=C(CSc1ccccn1)Nc1ccc2c(c1)C(=O)c1ccccc1C2=O    3.08 µM (active)

In: GET /values?readout=IC50&item= O=C(O)CC/C(=N\Nc1ccc(S(=O)(=O)N2CCCC2)cc1[N+](=O)[O-])c1cccs1
Out: 15.5 µM (active)

In: Same question for CSc1ccc(NC(=O)Nc2ccc(C(=O)NCC(=O)O)cc2)cc1 please.
Out: 3.17 µM (active)

In: Same question for O=C(COC(=O)c1ccc(NS(=O)(=O)c2cccs2)cc1)Nc1nc2c(F)c(F)c(F)cc2s1 please.
Out: 4.05 µM (active)

In: Same question for CSc1nc(SCCO)c2sc3nc(-c4ccco4)c4c(c3c2n1)CC(C)(C)OC4 please.
Out: 3.01 µM (active)

In: Same question for O=C(Cn1cnc2scc(-c3cccc([N+](=O)[O-])c3)c2c1=O)NCc1ccco1 please.
Out: 3.15 µM (active)

In: Same question for N[C@@H](C(=O)N[C@@H]1C(=O)N2C(C(=O)O)=C(Cl)CS[C@H]12)c1ccccc1 [CEFACLOR ANHYDROUS] please.
Out: 7.18 µM (active)

###

target: DNA dC->dU-editing enzyme APOBEC-3A (Homo sapiens, UniProt P31941); experiment: Dose Response confirmation of small molecule APOBEC3A DNA Deaminase Inhibitors via a fluorescence-based single-stranded DNA deaminase assay. [Related pubchem assays (depositor defined):AID493011, AID493024]; format: functional
Sequence (P31941 whole entry): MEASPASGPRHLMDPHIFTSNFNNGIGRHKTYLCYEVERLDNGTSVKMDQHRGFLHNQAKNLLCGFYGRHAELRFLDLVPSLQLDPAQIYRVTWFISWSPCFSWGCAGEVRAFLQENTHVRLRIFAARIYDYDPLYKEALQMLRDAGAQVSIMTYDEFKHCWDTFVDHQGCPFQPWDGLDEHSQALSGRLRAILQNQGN
Activity calls are given as the source filed them.
IC50 for assorted molecules

>>> df
                                   molecule                     target_or_test_system        data_value
0  Cc1c(NC(=O)c2nc[nH]n2)cccc1-c1nc2ccccc2s1  DNA dC->dU-editing enzyme APOBEC-3A (Homo sapiens, UniProt P31941)  1.58 µM (active)
1  CCc1n(CC(O)COCC2CC=CCC2)c2ccccc2[n+]1C (centres undefined)  DNA dC->dU-editing enzyme APOBEC-3A (Homo sapiens, UniProt P31941)  1.93 µM (active)
2  CN1CCN(CC(=O)Nc2sc3c(c2C(=O)Nc2ccccc2)CCCC3)CC1  DNA dC->dU-editing enzyme APOBEC-3A (Homo sapiens, UniProt P31941)  6.88 µM (active)

In: GET /values?readout=IC50&item= CCN1C(N(C)CCc2cccs2)=N[C@@H](c2ccccc2)C(C(=O)OC)=C1C
Out: 6.31 µM (active)
